system: SK-MEL-2 melanoma; test: NCI tumour cell line growth inhibition, 48 h
Parameter: TGI. Scope: all listed entries.

Solved cases below.
CCOc1cccc(C=Nc2ccccc2SSc2ccccc2N=Cc2cccc(OCC)c2O)c1O: 37.7 µM
CCc1[nH]c(=O)nc(N)c1-c1ccc(N2CCCCC2)c([N+](=O)[O-])c1: > 100 µM
[O-][n+]1nc(N2CCOCC2)nc2ccccc21: > 100 µM
CC[O-].CC[O-].O=C1c2ccccc2C(=O)c2c(O)ccc([O-])c21.O=C1c2ccccc2C(=O)c2c(O)ccc([O-])c21.[Ti+4]: > 100 µM
COC(=O)C(=O)C(C(=O)C(=O)Nc1ccccc1C(N)=O)c1nc2ccc(Cl)cc2[nH]c1=O (stereo not given): > 100 µM
Nc1ccc(/C=C/c2ccnc3ccccc23)cc1: 37.6 µM
COc1ccc(C(=O)c2cc(C)c(OC)c(C)c2)c(OC)c1N(C(=O)C(Cl)Cl)C(=O)C(Cl)Cl: > 100 µM
CC/C=C\C[C@@H]1C/C=C2/C(=O)C=C[C@H]2C/C=C\CCCC(=O)O1: 4.23 µM
COC(=O)c1ccccc1/C=C1\Cc2c(C)c3c(c(C)c2C1=O)CCC3: > 100 µM
N#Cc1nc(C2OC(COC(=O)c3ccccc3)C(OC(=O)c3ccccc3)C2OC(=O)c2ccccc2)oc1N (stereo not given): 93.7 µM

Look up TGI: COc1nn(Cc2ccccn2)c2ccc([N+](=O)[O-])cc12 > 100 µM

What TGI value was documented for this molecule, CC(C)=CCC/C(=C/CC/C(C)=C/CCc1ccoc1)C(=O)O ? > 100 µM

Requested read-out: TGI. Entry: O=[N+]([O-])/C(C(Cl)=C(Cl)Cl)=C1\Nc2ccc([N+](=O)[O-])cc2N1 > 100 µM

Form field: reported TGI of Cc1noc(C)c1CCCOC1COc2ccccc2OCCOCCOc2ccccc2OC1 > 100 µM

Would you kindly share the measured TGI for CCC[CH2][Sn]1([CH2]CCC)[O]C(=O)C(C(C)C)N=Cc2ccccc2[O]1 (stereo not given) ? 0.521 µM

Can you look up the measured TGI of O=C(c1cccc(O)c1O)c1cn(Cc2ccc(F)cc2)c2cccc(O)c12 for me? 23.2 µM

Quick one: TGI for CSC1=N/C(=C\c2ccc(C)cc2)C(=O)N1 ? > 100 µM

What measured TGI goes with O=C(O)CN(c1ccccc1)S(=O)(=O)c1ccccc1[N+](=O)[O-] ? > 100 µM

# query: TGI of entry Clc1nc(Cl)c2ncn(Cc3cccc(COc4cccc(OCc5cccc(Cn6cnc7c(Cl)nc(Cl)nc76)c5)c4)c3)c2n1 > 100 µM

Return reported TGI; argument: COC(=O)Nc1nc2ccc(Oc3ccc(NC(=O)Nc4ccccc4)cc3)cc2[nH]1 2.19 µM

###

tested on: NCI/ADR-RES ovarian; assay: NCI tumour cell line growth inhibition, 48 h; in the data active = GI50 below about 0.43 µM; inactive = the rest
Hello, when you answer, please use one of the following outcomes: 1.0 (active), 0.0 (inactive)

These recorded examples may help you get a feel for the data.
COc1ccc(C(=O)c2cc(C)c(OC)c(C)c2)c(OC)c1N(C(=O)C(Cl)Cl)C(=O)C(Cl)Cl: 1.0
CCS(=O)(=O)c1ccc(OC)c(Nc2ncc(-c3cccc(OC)c3)o2)c1: 0.0
CCC#CC[C@H]1C/C=C2/C(=O)C=C[C@@H]2C/C=C\CCCC(=O)O1: 0.0
CCN(CC)c1ccc(C(=N)c2ccc(N(CC)CC)cc2)cc1: 1.0

Returns: the outcome recorded for CCOC(=O)c1cc(/C(=N\O)c2cc(OC)c(OC)c(OC)c2)n2cc(C)cc(C)c12 in this assay. 0.0

Would you mind telling me which call this test gave COC(=O)Nc1nc2ccc(Oc3ccc(NC(=O)Nc4ccccc4)cc3)cc2[nH]1 ? 1.0

For this molecule, state the assay outcome: COc1cc[nH]c1/C=C1\C(=O)Nc2ccccc21 0.0

What outcome does the record of this test show for Cc1cn2c(/C=C3/C(=O)N(C)c4ccccc43)c(C)nc2s1 ? 0.0

In this assay, the call recorded for NC(=S)N/N=C/c1ccc(OC(=O)COc2ccc(Cl)cc2)cn1 was what? 0.0

Check the results log: what was the call for CCS(=O)(=O)c1ccc(OC)c(Nc2ncc(-c3cccc(C(C)=O)c3)o2)c1 ? 0.0
